Values were extracted from the supplement of paper PMC11196671.

Assay: MHET released, HPLC; higher = more MHET released; extreme values may be limits of the assay
Settings: PET substrate: cryPow; 70 °C; pH 9.5; 24 h
readout name: MHET released (mM)
Quick reminder: number only, in mM, skip the unit.

Task: Please look at this sequence and report its MHET released: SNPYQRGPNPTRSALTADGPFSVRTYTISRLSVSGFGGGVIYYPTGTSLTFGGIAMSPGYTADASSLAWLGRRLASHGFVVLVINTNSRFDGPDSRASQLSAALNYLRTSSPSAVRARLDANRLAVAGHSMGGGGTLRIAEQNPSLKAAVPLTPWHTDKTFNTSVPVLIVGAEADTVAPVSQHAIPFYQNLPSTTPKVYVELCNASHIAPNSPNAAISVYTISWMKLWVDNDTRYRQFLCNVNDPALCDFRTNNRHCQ [LCC-ICCG RIP]
Result: 0.0678

---

Assay: PET hydrolysis product formed (TPA+MHET+BHET, UV-Vis) per mg enzyme (mmol/mg enzyme); higher = more PET depolymerisation activity; extreme values may be limits of the assay
Details: PET substrate: aFilm; 60 °C; pH 9.5; 2 h
readout name: PET hydrolysis product formed
Just the number, please, no unit attached.

Task: Please look at this sequence and report its PET hydrolysis product formed: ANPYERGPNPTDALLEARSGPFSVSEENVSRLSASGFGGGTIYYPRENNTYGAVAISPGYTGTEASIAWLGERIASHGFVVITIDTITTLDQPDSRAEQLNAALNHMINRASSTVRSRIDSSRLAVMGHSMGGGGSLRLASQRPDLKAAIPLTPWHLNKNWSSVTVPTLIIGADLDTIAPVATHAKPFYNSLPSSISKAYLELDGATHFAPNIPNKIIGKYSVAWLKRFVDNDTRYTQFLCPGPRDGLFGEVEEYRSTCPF [TfCut2]
Result: 0.0114

---

Below, each entry is listed alongside its reported MHET released.
Assay: MHET released, HPLC; higher = more MHET released; extreme values may be limits of the assay
Conditions: PET substrate: aFilm; 70 °C; pH 9.5; 24 h
Quick reminder: number only, in mM, skip the unit.

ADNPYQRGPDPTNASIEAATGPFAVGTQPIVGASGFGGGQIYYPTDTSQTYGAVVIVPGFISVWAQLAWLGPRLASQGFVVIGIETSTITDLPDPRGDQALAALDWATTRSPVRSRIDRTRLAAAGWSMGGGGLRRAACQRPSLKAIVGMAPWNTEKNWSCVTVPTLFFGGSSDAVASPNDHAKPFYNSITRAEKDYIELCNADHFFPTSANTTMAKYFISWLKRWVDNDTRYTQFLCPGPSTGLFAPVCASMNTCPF [CaPETaseM9] : 0
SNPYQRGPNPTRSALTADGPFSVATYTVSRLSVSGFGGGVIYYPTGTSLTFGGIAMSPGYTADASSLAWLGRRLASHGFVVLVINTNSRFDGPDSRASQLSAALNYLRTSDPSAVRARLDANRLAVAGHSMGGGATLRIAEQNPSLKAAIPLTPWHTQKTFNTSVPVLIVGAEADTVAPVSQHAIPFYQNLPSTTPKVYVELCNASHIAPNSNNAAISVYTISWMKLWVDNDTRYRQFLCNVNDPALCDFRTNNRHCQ [LCC-ICCG DAQI] : 1.54
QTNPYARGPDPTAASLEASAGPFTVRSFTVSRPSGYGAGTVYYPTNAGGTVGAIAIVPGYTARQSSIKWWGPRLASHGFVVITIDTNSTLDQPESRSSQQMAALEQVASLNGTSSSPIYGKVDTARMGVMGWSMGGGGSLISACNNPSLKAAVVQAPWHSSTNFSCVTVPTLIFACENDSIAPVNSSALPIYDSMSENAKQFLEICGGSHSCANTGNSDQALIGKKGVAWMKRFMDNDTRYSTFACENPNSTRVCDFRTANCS [Z1-PETase] : 0
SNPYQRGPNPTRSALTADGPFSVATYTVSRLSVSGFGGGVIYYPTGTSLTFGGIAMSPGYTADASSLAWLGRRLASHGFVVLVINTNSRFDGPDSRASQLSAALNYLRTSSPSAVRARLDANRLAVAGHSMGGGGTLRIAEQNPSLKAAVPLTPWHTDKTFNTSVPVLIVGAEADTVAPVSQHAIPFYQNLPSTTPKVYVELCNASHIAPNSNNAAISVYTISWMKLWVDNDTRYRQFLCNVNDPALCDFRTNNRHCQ [LCC-ICCG] : 1.87
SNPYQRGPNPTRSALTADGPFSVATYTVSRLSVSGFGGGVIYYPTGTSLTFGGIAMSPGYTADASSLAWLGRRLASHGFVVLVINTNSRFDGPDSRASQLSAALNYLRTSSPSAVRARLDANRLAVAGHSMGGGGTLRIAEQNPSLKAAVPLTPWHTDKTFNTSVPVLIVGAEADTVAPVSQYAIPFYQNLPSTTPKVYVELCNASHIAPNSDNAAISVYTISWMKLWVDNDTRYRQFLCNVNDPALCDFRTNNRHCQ [LCC-A2] : 2.25

Let us examine a further case.
Task: Please look at this sequence and report its MHET released: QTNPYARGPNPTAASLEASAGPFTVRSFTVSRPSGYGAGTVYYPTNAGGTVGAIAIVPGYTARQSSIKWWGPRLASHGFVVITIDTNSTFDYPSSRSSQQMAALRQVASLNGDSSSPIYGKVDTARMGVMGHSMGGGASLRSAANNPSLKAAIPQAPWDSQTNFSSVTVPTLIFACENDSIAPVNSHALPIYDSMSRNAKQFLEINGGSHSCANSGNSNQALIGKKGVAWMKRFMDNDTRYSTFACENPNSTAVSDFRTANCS [DuraPETase]
Result: 0
